experiment: Irreversible inhibition of human CES2A using fluorescein diacetate as substrate preincubated for 33 mins followed by substrate addition by fluorescence microplate reader
recordedMetric: pIC50
In textbook form, pIC50 equals minus log to base ten of the concentration in mol/L.

Which pIC50 value is on record for CCCCCCCCC(=O)c1cccc2oc(-c3cc(OC)ccc3OC(=O)N3CCCC3)cc12 ?
10.55

----------
biological target: Voltage-gated inwardly rectifying potassium channel KCNH2 (Homo sapiens); assay: Inhibition of hERG expressed in HEK293 cells
Sequence (Q12809 whole entry): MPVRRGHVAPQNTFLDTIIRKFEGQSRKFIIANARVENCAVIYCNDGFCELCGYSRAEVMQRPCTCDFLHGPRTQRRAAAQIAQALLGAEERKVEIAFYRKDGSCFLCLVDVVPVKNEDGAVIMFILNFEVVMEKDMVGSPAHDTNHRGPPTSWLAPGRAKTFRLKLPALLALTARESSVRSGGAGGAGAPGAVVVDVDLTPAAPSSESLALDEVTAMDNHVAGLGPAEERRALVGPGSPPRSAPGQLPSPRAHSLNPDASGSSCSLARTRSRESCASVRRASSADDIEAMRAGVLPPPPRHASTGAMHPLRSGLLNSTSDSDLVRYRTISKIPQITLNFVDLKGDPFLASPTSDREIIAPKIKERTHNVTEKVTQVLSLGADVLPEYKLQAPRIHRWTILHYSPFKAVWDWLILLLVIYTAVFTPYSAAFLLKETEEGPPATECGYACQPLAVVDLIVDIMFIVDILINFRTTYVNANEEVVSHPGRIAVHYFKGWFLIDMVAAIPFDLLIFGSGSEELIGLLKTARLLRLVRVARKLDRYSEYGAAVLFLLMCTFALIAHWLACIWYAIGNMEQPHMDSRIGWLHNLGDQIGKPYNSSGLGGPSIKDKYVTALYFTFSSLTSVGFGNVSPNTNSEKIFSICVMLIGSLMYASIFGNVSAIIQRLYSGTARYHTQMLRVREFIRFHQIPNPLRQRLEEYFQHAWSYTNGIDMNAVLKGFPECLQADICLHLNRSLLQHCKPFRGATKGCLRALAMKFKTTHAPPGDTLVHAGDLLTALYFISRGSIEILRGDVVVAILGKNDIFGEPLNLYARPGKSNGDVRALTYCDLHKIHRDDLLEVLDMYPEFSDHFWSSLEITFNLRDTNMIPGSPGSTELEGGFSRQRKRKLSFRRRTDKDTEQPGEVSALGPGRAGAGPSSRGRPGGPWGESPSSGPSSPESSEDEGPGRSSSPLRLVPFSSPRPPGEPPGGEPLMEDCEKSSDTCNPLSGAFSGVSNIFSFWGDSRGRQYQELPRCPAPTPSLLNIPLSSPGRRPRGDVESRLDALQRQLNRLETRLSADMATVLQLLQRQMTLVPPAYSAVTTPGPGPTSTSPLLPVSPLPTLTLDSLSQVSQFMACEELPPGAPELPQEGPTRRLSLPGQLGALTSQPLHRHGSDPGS
recordedMetric: IC50

Which IC50 value is on record for CCCCCCCCC(=O)c1cccc2oc(-c3cc(OC)ccc3OC(=O)N3CCCC3)cc12 ?
> 10 µM
